assay: In vitro for platelet activating factor receptor antagonist activity in a binding assay using washed whole dog platelets.
ASSAY METRIC: IC50

Problem: Look up IC50: Cc1nnc2n1-c1sc(I)cc1C(c1ccccc1Cl)=NC2
Result: 370 nM
